- targetSystem: Prostaglandin G/H synthase 2 (Mus musculus, UniProt Q05769)
- Sequence (Q05769 whole entry): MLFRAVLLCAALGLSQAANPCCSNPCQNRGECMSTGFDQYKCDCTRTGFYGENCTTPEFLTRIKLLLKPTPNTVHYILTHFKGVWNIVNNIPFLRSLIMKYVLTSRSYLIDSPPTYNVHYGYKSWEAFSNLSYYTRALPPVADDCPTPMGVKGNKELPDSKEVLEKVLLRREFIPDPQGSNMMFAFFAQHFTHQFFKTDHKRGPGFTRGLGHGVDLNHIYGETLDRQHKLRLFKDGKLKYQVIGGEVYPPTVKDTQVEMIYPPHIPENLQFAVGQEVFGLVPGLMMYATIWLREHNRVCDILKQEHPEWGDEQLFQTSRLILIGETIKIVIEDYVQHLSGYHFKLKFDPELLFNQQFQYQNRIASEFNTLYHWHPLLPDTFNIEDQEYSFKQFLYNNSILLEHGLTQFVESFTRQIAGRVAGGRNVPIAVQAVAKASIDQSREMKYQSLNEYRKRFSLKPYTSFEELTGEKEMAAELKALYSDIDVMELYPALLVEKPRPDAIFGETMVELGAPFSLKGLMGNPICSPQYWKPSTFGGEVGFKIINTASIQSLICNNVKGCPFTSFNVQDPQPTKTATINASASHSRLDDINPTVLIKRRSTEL
- assayText: Inhibition of COX-2 in mouse RAW264.7 cells assessed as decrease in LPS-induced PGE2 production
- Assay type: cell-based
readoutType: pIC50
FYI, pIC50 means -log10 of a concentration in mol per litre.

Inquiry: What value of measured pIC50 is listed for CCCCCCN(CCCCCC)C(=O)/C=C/c1c(/C=C/c2ccc(OC)cc2)cc(OC)cc1OC ?
Reply text: 5.51

Inquiry: Try this molecule too: COc1ccc(/C=C/c2cc(OC)cc(OC)c2/C=C/C(=O)N(C)C)cc1
Reply text: 5.36

Inquiry: What do we get for COc1ccc(/C=C/c2cc(OC)cc(OC)c2/C=C/C(=O)N2CCC(c3ccccc3)CC2)cc1 ?
Reply text: 5.45

Inquiry: Try the molecule CCN(CC)C(=O)/C=C/c1c(/C=C/c2ccc(OC)cc2)cc(OC)cc1OC
Reply text: 5.67

Inquiry: Same for CCCCCN(CCCCC)C(=O)/C=C/c1c(/C=C/c2ccc(OC)cc2)cc(OC)cc1OC
Reply text: 5.14

Inquiry: // next record CCCNC(=O)/C=C/c1c(/C=C/c2ccc(OC)cc2)cc(OC)cc1OC
Reply text: 5.68

Inquiry: Another: CCNC(=O)/C=C/c1c(/C=C/c2ccc(OC)cc2)cc(OC)cc1OC
Reply text: 5.15

Inquiry: Check COc1ccc(/C=C/c2cc(OC)cc(OC)c2/C=C/C(=O)NC(C)C)cc1 too.
Reply text: 6.14

Inquiry: Would you mind doing COc1ccc(/C=C/c2cc(OC)cc(OC)c2/C=C/C(=O)NCCCl)cc1 as well?
Reply text: 6.35

Inquiry: Proceed to COc1ccc(/C=C/c2cc(OC)cc(OC)c2/C=C/C(=O)NCCCN2CCOCC2)cc1
Reply text: 5.43

Inquiry: How about COc1ccc(/C=C/c2cc(OC)cc(OC)c2/C=C/C(=O)N2CCC(Cl)CC2)cc1 ?
Reply text: 6.34

Inquiry: And for COc1ccc(/C=C/c2cc(OC)cc(OC)c2/C=C/C(=O)NCC(C)C)cc1 ?
Reply text: 5.21

Inquiry: Another molecule to check: COc1ccc(/C=C/c2cc(OC)cc(OC)c2/C=C/C(=O)N2CCCC2)cc1
Reply text: 5.42

Inquiry: Request: CCCCCCCCNC(=O)/C=C/c1c(/C=C/c2ccc(OC)cc2)cc(OC)cc1OC
Reply text: 4.86

Inquiry: Again, but for COc1ccc(/C=C/c2cc(OC)cc(OC)c2/C=C/C(=O)NCCCCl)cc1
Reply text: 6.41

Inquiry: Next record, please: COc1ccc(/C=C/c2cc(OC)cc(OC)c2/C=C/C(=O)N2CCCC(C)C2)cc1 (stereo not given)
Reply text: 5.50

Inquiry: Queued: COc1ccc(/C=C/c2cc(OC)cc(OC)c2/C=C/C(=O)Nc2cc(OC)c(OC)c(OC)c2)cc1
Reply text: 5.68

Inquiry: // next record COc1ccc(/C=C/c2cc(OC)cc(OC)c2/C=C/C(=O)N2CCC(C)CC2)cc1
Reply text: 5.09

Inquiry: And for C#CCNC(=O)/C=C/c1c(/C=C/c2ccc(OC)cc2)cc(OC)cc1OC ?
Reply text: 5.29

Inquiry: Further, for COc1ccc(/C=C/c2cc(OC)cc(OC)c2/C=C/C(=O)N(CC(C)C)CC(C)C)cc1 ?
Reply text: 5.59
